test: method code SF-AS, from DOI: 10.1177/1934578x0700201005; conditions: pH 7.4
measurement-type: logD

query-smiles	obs-value
O=c1cc(-c2ccccc2O)oc2ccccc12	3.01
COc1ccc(-c2cc(=O)c3ccccc3o2)cc1	3.21
COc1ccccc1-c1cc(=O)c2ccccc2o1	3.14
COc1ccc2c(=O)cc(-c3ccccc3)oc2c1	3.12
COc1c(-c2ccccc2)oc2ccccc2c1=O	3.18
COc1cccc2oc(-c3ccccc3)cc(=O)c12	2.98
COc1ccc2oc(-c3ccccc3)cc(=O)c2c1	3.22
O=c1c(O)c(-c2ccccc2)oc2ccccc12	3.52
COc1ccc2c(=O)cc(-c3ccccc3)oc2c1O	2.9
O=c1cc(-c2ccccc2)oc2c(O)cccc12	3.03
O=c1cc(-c2ccccc2)oc2cccc(O)c12	3.39
O=c1cc(-c2cccc(O)c2)oc2ccccc12	3.03
COc1cccc(-c2cc(=O)c3ccccc3o2)c1	3.26
